target: furin, P09958; test: furin cleavage Z-score vs untreated control; higher = more cleavage, active = 3.5 or more, inactive = 1 or less, 8 variable residues between constant flanks; conditions: 15 min;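 also: purified furin at 1:10 enzyme:substrate in 50 mM HEPES pH 7.5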
Sequence (P09958 whole entry): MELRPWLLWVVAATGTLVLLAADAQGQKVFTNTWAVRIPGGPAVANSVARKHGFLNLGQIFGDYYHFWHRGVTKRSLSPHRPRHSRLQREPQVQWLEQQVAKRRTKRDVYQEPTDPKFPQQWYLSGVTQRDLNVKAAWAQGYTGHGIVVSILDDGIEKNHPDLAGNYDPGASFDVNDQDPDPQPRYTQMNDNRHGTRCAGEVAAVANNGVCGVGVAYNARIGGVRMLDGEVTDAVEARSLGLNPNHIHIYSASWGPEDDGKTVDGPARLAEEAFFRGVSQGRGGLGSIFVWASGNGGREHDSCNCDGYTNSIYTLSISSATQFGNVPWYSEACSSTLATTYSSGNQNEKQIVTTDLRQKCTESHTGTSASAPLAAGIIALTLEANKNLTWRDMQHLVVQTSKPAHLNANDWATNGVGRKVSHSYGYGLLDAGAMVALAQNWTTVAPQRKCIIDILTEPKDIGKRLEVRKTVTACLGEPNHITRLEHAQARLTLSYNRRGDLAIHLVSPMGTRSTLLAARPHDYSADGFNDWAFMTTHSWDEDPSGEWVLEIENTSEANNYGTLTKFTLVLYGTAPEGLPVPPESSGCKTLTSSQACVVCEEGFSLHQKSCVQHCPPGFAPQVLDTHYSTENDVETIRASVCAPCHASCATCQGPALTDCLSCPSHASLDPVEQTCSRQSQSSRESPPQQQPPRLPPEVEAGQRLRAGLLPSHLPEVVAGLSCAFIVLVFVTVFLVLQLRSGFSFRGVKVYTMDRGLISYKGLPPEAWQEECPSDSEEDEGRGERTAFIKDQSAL
This is one part of the list. How many sequences the whole screen found active is unknown.
MEASURED PROPERTY: furin cleavage Z-score

Example sequences with recorded furin cleavage Z-score:
Query string: // returns reported furin cleavage Z-score for input CAVVDCSMSYAGNASASA [HC2031]
Result string: -0.65 (inactive)

Query string: // returns reported furin cleavage Z-score for input CARQKRRAKPAGNASASA [FS-1864]
Result string: 6.71 (active)

Query string: // returns reported furin cleavage Z-score for input CAVVCGSMSYAGNASASA [HC82]
Result string: -1.58 (inactive)

Query string: // returns reported furin cleavage Z-score for input CARHRRLRGPAGNASASA [FS-1825]
Result string: -0.893 (inactive)

Query string: // returns reported furin cleavage Z-score for input CACTCGSSDLAGNASASA [HC722]
Result string: -3.51 (inactive)

Query string: // returns reported furin cleavage Z-score for input CARAKRSVHFAGNASASA [FS-2640]
Result string: -0.574 (inactive)

For each of the items listed, what is its furin cleavage Z-score?
1. CALGPRFKRLAGNASASA [FS-269]
2. CAWGPRFKRLAGNASASA [FS-209]
3. CALEVVTSTWAGNASASA [HC987]
4. CAYVCCSMSYAGNASASA [HC1989]
5. CARAKRSSKMAGNASASA [FS-3181]
6. CARVKRPQLMAGNASASA [FS-2532]

Result string:
["10.1 (active)", "8.43 (active)", "0.551 (inactive)", "-0.0389 (inactive)", "7.55 (active)", "-0.179 (inactive)"]

For each of the items listed, what is its furin cleavage Z-score?
1. CATYPCSGSWAGNASASA [HC1849]
2. CARVKRVSHSAGNASASA [FS-2619]
3. CADAELIEANAGNASASA [HC1272]
4. CARQKRNKIPAGNASASA [FS-2290]

Result string:
1: -0.736 (inactive); 2: 0.383 (inactive); 3: 1.04; 4: -0.821 (inactive)
